B1: library; a variant is named by its letters at N, in order (parent)
chain: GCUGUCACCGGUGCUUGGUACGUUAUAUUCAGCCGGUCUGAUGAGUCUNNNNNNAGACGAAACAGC

variants of: B1; test: FACS-Seq fitted mean relative fluorescence mCherry/BFP without ligand (log10 relative fluorescence); HEK293T overexpressing SLC46A1; higher = higher reporter protein expression; settings: without (6R,S)-folinic acid; ligand present: no
MEASUREMENT_TYPE: FACS-Seq fitted mean (log10)
Write the value as a bare number.

Could you share which FACS-Seq fitted mean (log10) value was measured for GUGAGG ?
0.394

Let us now turn to GUUGUG
0.391

Same for CGAACC
0.4

Next variant: UUCUGC
0.411

Also check UGGGAU
0.398

Also UGGUGA ?
0.399

Proceed to CAGCAU
0.411
